Entry source: the supplement of paper PMC7877785

Recorded measurements of self-splicing fitness (ln), one per entry
protocol-details: self-splicing fitness, log relative to wild type (ln ratio); higher = more splicing; Tetrahymena group I intron in knt gene, E. coli kanamycin selection, DiMSum; sequences stand for … in CUCUCU…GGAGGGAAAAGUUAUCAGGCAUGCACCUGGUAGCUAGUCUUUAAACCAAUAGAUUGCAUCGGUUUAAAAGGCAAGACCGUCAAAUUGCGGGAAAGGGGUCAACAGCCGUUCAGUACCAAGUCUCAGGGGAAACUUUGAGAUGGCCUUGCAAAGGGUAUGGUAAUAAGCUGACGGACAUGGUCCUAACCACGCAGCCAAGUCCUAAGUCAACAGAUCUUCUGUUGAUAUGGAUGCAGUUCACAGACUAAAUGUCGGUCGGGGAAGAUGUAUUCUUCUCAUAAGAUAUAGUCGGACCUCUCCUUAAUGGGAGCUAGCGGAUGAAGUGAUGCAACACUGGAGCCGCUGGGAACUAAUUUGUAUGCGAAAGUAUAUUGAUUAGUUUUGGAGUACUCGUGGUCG;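 note: selection with 25 µg/mL kanamycin versus none on LB agar overnight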
reported-conditions: 37 °C
observed-property: self-splicing fitness (ln)

[
  {
    "sequence-content": "UCACAGCAAUAUUACGAACG",
    "observed-property": "self-splicing fitness (ln)",
    "value-measured": -1.19
  },
  {
    "sequence-content": "CGCCAGCAAUAUUACGCCCG",
    "observed-property": "self-splicing fitness (ln)",
    "value-measured": -0.959
  },
  {
    "sequence-content": "UCCAAGCAAUAUUACGCAAA",
    "observed-property": "self-splicing fitness (ln)",
    "value-measured": -0.843
  },
  {
    "sequence-content": "GCAUAGCAAUAUUACGGGAC",
    "observed-property": "self-splicing fitness (ln)",
    "value-measured": -0.217
  },
  {
    "sequence-content": "AUGUAGCAAUAUUACGCAAU",
    "observed-property": "self-splicing fitness (ln)",
    "value-measured": -1.01
  },
  {
    "sequence-content": "AGUCAGCAAUAUUACGCGCU",
    "observed-property": "self-splicing fitness (ln)",
    "value-measured": -1.86
  },
  {
    "sequence-content": "CGGCAGCAAUAUUACGAUUG",
    "observed-property": "self-splicing fitness (ln)",
    "value-measured": 0.0589
  },
  {
    "sequence-content": "GGAUAGCAAUAUUACGUUUU",
    "observed-property": "self-splicing fitness (ln)",
    "value-measured": -1.62
  },
  {
    "sequence-content": "UGCCAGCAAUAUUACGGUAU",
    "observed-property": "self-splicing fitness (ln)",
    "value-measured": -2
  },
  {
    "sequence-content": "GAAGAGCAAUAUUACGACAG",
    "observed-property": "self-splicing fitness (ln)",
    "value-measured": -2.76
  },
  {
    "sequence-content": "GCAGAGCAAUAUUACGAGAC",
    "observed-property": "self-splicing fitness (ln)",
    "value-measured": -2.03
  },
  {
    "sequence-content": "CCCCAGCAAUAUUACGUCUC",
    "observed-property": "self-splicing fitness (ln)",
    "value-measured": -3.61
  },
  {
    "sequence-content": "UAUCAGCAAUAUUACGUCAC",
    "observed-property": "self-splicing fitness (ln)",
    "value-measured": -1.83
  },
  {
    "sequence-content": "CCUCAGCAAUAUUACGGGUU",
    "observed-property": "self-splicing fitness (ln)",
    "value-measured": -2.02
  },
  {
    "sequence-content": "AGGAAGCAAUAUUACGGAAG",
    "observed-property": "self-splicing fitness (ln)",
    "value-measured": -2.28
  },
  {
    "sequence-content": "CCCCAGCAAUAUUACGGGUG",
    "observed-property": "self-splicing fitness (ln)",
    "value-measured": -2.91
  },
  {
    "sequence-content": "AUGCAGCAAUAUUACGUAAU",
    "observed-property": "self-splicing fitness (ln)",
    "value-measured": -0.479
  },
  {
    "sequence-content": "CCGGAGCAAUAUUACGGAGG",
    "observed-property": "self-splicing fitness (ln)",
    "value-measured": -2.35
  },
  {
    "sequence-content": "UGUUAGCAAUAUUACGGGUC",
    "observed-property": "self-splicing fitness (ln)",
    "value-measured": -1.53
  },
  {
    "sequence-content": "ACAGAGCAAUAUUACGAAUA",
    "observed-property": "self-splicing fitness (ln)",
    "value-measured": -2.2
  },
  {
    "sequence-content": "GCCUAGCAAUAUUACGCCAG",
    "observed-property": "self-splicing fitness (ln)",
    "value-measured": -2.67
  },
  {
    "sequence-content": "AUAGAGCAAUAUUACGGUCA",
    "observed-property": "self-splicing fitness (ln)",
    "value-measured": -0.634
  },
  {
    "sequence-content": "AUGAAGCAAUAUUACGCAAA",
    "observed-property": "self-splicing fitness (ln)",
    "value-measured": -1.31
  },
  {
    "sequence-content": "AACAAGCAAUAUUACGAUCG",
    "observed-property": "self-splicing fitness (ln)",
    "value-measured": -0.996
  },
  {
    "sequence-content": "GAGGAGCAAUAUUACGUGCU",
    "observed-property": "self-splicing fitness (ln)",
    "value-measured": -2.32
  },
  {
    "sequence-content": "AAUGAGCAAUAUUACGACCG",
    "observed-property": "self-splicing fitness (ln)",
    "value-measured": -1.24
  },
  {
    "sequence-content": "AGACAGCAAUAUUACGUAGU",
    "observed-property": "self-splicing fitness (ln)",
    "value-measured": -1.88
  },
  {
    "sequence-content": "UAAUAGCAAUAUUACGGUCU",
    "observed-property": "self-splicing fitness (ln)",
    "value-measured": -2.49
  },
  {
    "sequence-content": "CGCGAGCAAUAUUACGUGUU",
    "observed-property": "self-splicing fitness (ln)",
    "value-measured": -2.75
  },
  {
    "sequence-content": "AUAAAGCAAUAUUACGGAGC",
    "observed-property": "self-splicing fitness (ln)",
    "value-measured": -2.21
  },
  {
    "sequence-content": "AGAUAGCAAUAUUACGUGAU",
    "observed-property": "self-splicing fitness (ln)",
    "value-measured": -0.886
  },
  {
    "sequence-content": "UCCUAGCAAUAUUACGUUCA",
    "observed-property": "self-splicing fitness (ln)",
    "value-measured": -2.38
  },
  {
    "sequence-content": "CAAUAGCAAUAUUACGGAAC",
    "observed-property": "self-splicing fitness (ln)",
    "value-measured": -3.27
  },
  {
    "sequence-content": "CGAGAGCAAUAUUACGGUCA",
    "observed-property": "self-splicing fitness (ln)",
    "value-measured": -2.29
  }
]
